Target: HDAC1-MIER1 (Homo sapiens, UniProt Q13547)
Construct: We used HDAC complexes with the most components that could be stably expressed, with full-length proteins where feasible; made in house; host or cells: HEK293F
Sequence (Q8N108 whole entry partner, other chains not shown): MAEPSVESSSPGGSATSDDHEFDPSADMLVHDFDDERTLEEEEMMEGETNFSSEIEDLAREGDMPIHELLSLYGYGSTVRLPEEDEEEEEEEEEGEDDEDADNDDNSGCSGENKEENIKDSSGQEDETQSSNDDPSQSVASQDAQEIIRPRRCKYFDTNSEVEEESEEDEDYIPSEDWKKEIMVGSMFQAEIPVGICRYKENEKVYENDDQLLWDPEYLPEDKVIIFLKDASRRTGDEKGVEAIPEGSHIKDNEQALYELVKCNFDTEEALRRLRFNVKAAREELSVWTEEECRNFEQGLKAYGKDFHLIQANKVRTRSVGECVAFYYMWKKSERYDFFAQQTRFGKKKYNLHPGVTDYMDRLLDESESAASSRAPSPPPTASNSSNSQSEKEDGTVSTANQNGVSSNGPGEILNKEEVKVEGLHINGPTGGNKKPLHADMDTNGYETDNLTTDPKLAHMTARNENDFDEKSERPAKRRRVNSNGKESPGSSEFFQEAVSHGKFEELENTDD
Assay: fluorescent HDAC assay (Boc-(Ac)Lys-AMC), HDAC1-MIER1 complex
Assay type: biochemical
Details: IC50 HDAC1-MIER1, +IP6 (100 μM InsP6)
READOUT: IC50 (nM)
Please state the figure in nM; there is no need to write the unit.

Requested read-out IC50, target or system HDAC1-MIER1 (Homo sapiens, UniProt Q13547), entry C/C=C1\NC(=O)[C@H]2CSSCC/C=C/[C@H](CC(=O)N[C@H](C(C)C)C(=O)N2)OC(=O)[C@H](C(C)C)NC1=O [Romidepsin, romidepsin, reference compound]
21

---

Molecular target: HDAC1-NuRD (Homo sapiens, UniProt Q13547)
Construct: We used HDAC complexes with the most components that could be stably expressed, with full-length proteins where feasible; made in house; host or cells: HEK293F
Sequence (Q13330 whole entry partner, one chain of several): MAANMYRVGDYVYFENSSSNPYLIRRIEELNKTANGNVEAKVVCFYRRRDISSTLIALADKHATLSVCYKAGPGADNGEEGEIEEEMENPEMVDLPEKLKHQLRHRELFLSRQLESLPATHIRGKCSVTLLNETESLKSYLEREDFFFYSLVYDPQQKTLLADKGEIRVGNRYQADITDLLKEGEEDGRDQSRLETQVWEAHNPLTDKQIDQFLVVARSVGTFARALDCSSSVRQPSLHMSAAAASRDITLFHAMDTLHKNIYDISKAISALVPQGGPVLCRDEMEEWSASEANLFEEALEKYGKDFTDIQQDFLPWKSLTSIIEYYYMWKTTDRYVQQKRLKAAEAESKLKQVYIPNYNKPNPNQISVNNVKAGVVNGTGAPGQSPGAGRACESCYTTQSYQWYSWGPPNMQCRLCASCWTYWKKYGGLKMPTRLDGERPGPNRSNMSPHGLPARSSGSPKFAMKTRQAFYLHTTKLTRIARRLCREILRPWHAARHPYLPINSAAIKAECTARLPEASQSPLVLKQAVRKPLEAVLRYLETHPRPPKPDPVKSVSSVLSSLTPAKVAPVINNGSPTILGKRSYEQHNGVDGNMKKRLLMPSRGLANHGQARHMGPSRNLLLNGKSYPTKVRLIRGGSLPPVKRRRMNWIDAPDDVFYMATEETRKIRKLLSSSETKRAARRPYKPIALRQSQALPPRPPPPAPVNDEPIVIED
Sequence (Q9UBB5 145-411 partner limits assumed, one chain of several): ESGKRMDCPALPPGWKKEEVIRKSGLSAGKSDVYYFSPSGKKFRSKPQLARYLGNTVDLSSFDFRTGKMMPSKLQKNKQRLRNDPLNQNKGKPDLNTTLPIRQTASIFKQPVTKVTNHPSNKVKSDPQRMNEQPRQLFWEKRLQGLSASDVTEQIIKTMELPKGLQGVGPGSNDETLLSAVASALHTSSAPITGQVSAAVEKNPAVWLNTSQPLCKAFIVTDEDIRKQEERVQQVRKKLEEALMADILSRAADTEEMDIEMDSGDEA
Sequence (Q09028 whole entry partner, one chain of several): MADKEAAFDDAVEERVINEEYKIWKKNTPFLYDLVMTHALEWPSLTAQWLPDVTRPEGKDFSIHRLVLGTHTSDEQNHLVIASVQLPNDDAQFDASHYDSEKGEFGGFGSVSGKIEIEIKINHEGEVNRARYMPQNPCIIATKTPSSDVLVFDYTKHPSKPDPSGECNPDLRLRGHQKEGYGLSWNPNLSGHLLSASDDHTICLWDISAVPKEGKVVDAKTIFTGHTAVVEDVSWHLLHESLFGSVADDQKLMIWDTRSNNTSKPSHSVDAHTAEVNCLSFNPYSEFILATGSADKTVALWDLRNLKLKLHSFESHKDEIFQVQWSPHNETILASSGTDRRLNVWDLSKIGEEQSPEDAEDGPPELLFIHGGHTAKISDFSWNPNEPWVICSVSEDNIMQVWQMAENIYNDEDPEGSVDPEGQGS
Sequence (Q16576 whole entry partner, one chain of several): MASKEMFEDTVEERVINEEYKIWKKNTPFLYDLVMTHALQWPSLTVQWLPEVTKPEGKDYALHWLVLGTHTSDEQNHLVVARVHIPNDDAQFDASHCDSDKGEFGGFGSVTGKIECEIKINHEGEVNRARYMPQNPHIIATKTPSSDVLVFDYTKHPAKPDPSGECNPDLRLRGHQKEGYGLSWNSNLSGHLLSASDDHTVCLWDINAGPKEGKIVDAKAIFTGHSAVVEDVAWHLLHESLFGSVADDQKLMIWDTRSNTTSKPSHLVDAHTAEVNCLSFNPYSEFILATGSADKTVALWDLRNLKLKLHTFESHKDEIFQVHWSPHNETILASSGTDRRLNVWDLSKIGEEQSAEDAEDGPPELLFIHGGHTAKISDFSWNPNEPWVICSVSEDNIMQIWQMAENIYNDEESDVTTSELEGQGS
Experiment: fluorescent HDAC assay (Boc-(Ac)Lys-AMC), HDAC1-NuRD complex
Assay type: biochemical
Settings: +IP6 (100 μM InsP6); read-out: IC50 HDAC1-NuRD
READOUT: pIC50
Kindly note that pIC50 refers to -log10 of the concentration in mol/L and answer with the value alone.

Which pIC50 is reported for this compound? Nc1ccccc1NC(=O)c1cnc(N2CCNCC2)cn1 [Compound 1]
5.67

---

Target: HDAC1-MiDAC (Homo sapiens)
Construct: We used HDAC complexes with the most components that could be stably expressed, with full-length proteins where feasible; made in house; host or cells: HEK293F
Sequence (Q9H147 whole entry partner, one chain of several): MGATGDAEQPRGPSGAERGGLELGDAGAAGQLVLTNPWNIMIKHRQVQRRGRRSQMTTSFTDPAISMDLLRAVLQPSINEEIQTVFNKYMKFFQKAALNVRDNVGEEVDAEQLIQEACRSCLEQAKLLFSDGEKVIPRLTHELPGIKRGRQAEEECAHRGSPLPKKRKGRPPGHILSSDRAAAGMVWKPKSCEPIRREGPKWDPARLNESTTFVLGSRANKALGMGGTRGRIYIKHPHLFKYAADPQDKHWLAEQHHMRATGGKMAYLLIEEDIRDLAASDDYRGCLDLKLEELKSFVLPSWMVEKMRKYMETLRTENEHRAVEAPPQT
Sequence (Q6PJG2 628-887 partner limits assumed, one chain of several): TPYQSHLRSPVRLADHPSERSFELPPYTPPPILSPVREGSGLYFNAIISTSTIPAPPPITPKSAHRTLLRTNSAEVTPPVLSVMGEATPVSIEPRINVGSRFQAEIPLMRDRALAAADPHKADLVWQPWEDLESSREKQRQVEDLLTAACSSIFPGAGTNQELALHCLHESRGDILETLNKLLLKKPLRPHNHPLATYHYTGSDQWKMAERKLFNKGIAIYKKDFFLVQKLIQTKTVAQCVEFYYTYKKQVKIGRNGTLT
Assay: fluorescent HDAC assay (Boc-(Ac)Lys-AMC), HDAC1-MiDAC complex
Type: biochemical
Settings: +IP6 (100 μM InsP6); read-out: IC50 HDAC1-MiDAC
READOUT: pIC50
Kindly note that pIC50 refers to -log10 of the concentration in mol/L and answer with the value alone.

{"RECORD_SMILES": "Nc1ccccc1NC(=O)c1cnc(N2CCNCC2)cn1", "RECORDED_MEASUREMENT": 5.58}

Kindly consider the entry below.
Which pIC50 is reported for this compound? Nc1ccc(-c2ccncc2)cc1NC(=O)c1cnc(N2CCNCC2)cn1
4.60

---

Reported pIC50 is given for each of the following compounds.
Target: HDAC1-RERE (Homo sapiens)
Construct: We used HDAC complexes with the most components that could be stably expressed, with full-length proteins where feasible; made in house; host or cells: HEK293F
Sequence (Q9P2R6 1-565 partner limits assumed, one chain of several): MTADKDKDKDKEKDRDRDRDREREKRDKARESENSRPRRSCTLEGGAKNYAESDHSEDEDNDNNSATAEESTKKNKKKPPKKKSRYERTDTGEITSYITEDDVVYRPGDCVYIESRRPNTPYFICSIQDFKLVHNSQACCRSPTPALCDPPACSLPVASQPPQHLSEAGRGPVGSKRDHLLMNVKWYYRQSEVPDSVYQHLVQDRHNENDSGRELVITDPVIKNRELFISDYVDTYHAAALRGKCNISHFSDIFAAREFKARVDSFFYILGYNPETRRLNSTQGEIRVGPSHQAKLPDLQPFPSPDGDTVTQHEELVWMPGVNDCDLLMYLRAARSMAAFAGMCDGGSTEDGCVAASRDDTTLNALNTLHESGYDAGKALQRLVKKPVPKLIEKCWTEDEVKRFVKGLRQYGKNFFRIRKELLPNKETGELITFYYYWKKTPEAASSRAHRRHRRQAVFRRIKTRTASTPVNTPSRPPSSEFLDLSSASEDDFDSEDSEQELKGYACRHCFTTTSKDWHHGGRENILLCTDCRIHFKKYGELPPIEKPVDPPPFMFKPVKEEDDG
Assay: fluorescent HDAC assay (Boc-(Ac)Lys-AMC), HDAC1-RERE complex
Format: biochemical
Conditions: +IP6 (100 μM InsP6); read-out: IC50 HDAC1-RERE
Kindly note that pIC50 refers to -log10 of the concentration in mol/L and answer with the value alone.

{"RECORD_SMILES": "Nc1ccccc1NC(=O)c1cnc(N2CCNCC2)cn1", "RECORDED_MEASUREMENT": 4.49}

Which pIC50 is reported for this compound? Nc1ccc(-c2ccncc2)cc1NC(=O)c1cnc(N2CCNCC2)cn1
3.51

---

Target: HDAC1-MIER1 (Homo sapiens, UniProt Q13547)
Construct: We used HDAC complexes with the most components that could be stably expressed, with full-length proteins where feasible; made in house; host or cells: HEK293F
Assay: fluorescent HDAC assay (Boc-(Ac)Lys-AMC), HDAC1-MIER1 complex
Format: biochemical
Conditions: IC50 HDAC1-MIER1, -IP6
READOUT: IC50 (µM)
Please state the figure in µM; there is no need to write the unit.

Which IC50 is reported for this compound? C/C=C1\NC(=O)[C@H]2CSSCC/C=C/[C@H](CC(=O)N[C@H](C(C)C)C(=O)N2)OC(=O)[C@H](C(C)C)NC1=O [Romidepsin, romidepsin, reference compound]
0.027

---

Reported pIC50 is given for each of the following molecules.
Target: HDAC1-CoREST (Homo sapiens, UniProt Q13547)
Construct: We used HDAC complexes with the most components that could be stably expressed, with full-length proteins where feasible; made in house; host or cells: HEK293F
Sequence (Q13547 whole entry, other chains not shown): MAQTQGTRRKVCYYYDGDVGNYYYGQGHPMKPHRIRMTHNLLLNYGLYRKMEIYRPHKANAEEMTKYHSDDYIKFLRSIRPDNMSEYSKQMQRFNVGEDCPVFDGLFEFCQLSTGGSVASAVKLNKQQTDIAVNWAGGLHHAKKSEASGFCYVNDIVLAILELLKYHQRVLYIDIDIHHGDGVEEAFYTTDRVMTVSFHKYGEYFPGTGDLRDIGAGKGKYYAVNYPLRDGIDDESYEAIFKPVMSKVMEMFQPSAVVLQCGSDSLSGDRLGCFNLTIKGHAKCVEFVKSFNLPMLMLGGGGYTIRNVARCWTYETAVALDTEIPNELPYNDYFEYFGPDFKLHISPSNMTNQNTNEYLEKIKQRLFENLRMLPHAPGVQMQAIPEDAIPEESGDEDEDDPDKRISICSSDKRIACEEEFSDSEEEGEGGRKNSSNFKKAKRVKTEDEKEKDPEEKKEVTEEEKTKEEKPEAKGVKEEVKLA
Sequence (Q9UKL0 86-485 partner limits assumed, other chains not shown): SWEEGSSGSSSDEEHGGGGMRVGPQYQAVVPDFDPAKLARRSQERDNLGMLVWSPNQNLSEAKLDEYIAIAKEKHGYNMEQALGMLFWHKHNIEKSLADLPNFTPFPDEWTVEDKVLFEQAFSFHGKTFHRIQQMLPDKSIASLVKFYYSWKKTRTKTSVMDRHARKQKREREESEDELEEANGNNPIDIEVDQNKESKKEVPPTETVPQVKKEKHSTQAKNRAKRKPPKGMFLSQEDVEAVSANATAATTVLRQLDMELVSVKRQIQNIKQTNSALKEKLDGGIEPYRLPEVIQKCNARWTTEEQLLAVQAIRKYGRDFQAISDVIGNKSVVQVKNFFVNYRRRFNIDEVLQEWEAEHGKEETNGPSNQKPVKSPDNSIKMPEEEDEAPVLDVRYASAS
Assay: fluorescent HDAC assay (Boc-(Ac)Lys-AMC), HDAC1-CoREST complex
Format: biochemical
Settings: -IP6; read-out: IC50 HDAC1-CoREST
Kindly note that pIC50 refers to -log10 of the concentration in mol/L and answer with the value alone.

Which pIC50 is reported for this molecule? Nc1ccccc1NC(=O)c1cnc(N2CCNCC2)cn1
6.89

Now the same for Nc1ccc(-c2ccncc2)cc1NC(=O)c1cnc(N2CCNCC2)cn1
7.85

---

Molecular target: HDAC1-NuRD (Homo sapiens, UniProt Q13547)
Construct: We used HDAC complexes with the most components that could be stably expressed, with full-length proteins where feasible; made in house; host or cells: HEK293F
Assay: fluorescent HDAC assay (Boc-(Ac)Lys-AMC), HDAC1-NuRD complex
Assay type: biochemical
Settings: IC50 HDAC1-NuRD, +IP6 (100 μM InsP6)
READOUT: IC50 (nM)
Please state the figure in nM; there is no need to write the unit.

Which IC50 is reported for this molecule? C/C=C1\NC(=O)[C@H]2CSSCC/C=C/[C@H](CC(=O)N[C@H](C(C)C)C(=O)N2)OC(=O)[C@H](C(C)C)NC1=O [Romidepsin, romidepsin, reference compound]
11
